B1: Myocardin, residues 363 to 406; numbered along this chain, Q8IZQ8 (parent)
chain: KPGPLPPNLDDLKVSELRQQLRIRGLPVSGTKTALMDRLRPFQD

- Variants of: B1
- Protocol Summary: abundance fitness (aPCA) (normalised: wild type 0, dead -1); higher = more abundant; growth selection in yeast, the domain comes from the species named
- Assay Context: Homo sapiens
Using abundance fitness as the sorting value, the categories are low: < -0.5; moderate: ≥ -0.5 and < -0.2; high: ≥ -0.2

A selection of reference data follows.
{"columns": ["Variant Spec", "Assigned Label"],
 "data": [
  ["G30T", "low"],
  ["P2D", "high"],
  ["M36G", "low"],
  ["S29M", "high"]
]}

Request: Categorize the following entry: V14A
Result: moderate

Request: Lab note: sort L5M into the matching abundance fitness band.
Result: high
